Values compiled from patent US10273267B2.

TARGET OR SYSTEM: porcine pancreatic elastase (Sus scrofa)
Construct: purchased Sigma, USA
Sequence (P00772 27-266): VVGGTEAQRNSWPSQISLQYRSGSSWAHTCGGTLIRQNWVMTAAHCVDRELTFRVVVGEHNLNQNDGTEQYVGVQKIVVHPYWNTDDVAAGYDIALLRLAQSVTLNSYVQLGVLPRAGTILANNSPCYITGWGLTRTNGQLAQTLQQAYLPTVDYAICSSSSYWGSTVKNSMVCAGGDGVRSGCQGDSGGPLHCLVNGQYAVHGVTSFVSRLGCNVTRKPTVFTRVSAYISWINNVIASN
RUN DESCRIPTION: Inhibition of porcine pancreatic elastase (hydrolysis of MeOSuc-AAA-pNA)
Type: biochemical
ASSAY CONTEXT: ratio of PPE IC50 to hNE IC50
Where a SMILES comes first, the peptide text is derived from it. [ ]: non-standard residue; d: D form. Gly(octyl) = CCCCCCCC[C@H](N)C(=O)O; hTyr = N[C@@H](CCc1ccc(O)cc1)C(=O)O; β3hQ = NC(=O)CC[C@H](N)CC(=O)O
Catalogue of hNE/PPE selectivity readings, one per entry.
Please state the value as a number alone, without comment.

CCCCCCCC[C@@H]1NC(=O)[C@H](CCCCN)NC(=O)[C@@H](Cc2ccc(O)cc2)NC(=O)[C@H]([C@@H](C)O)NC(=O)[C@H](CCCCN)NC(=O)[C@H](CCC(N)=O)NC(=O)[C@@H]2CCCN2C(=O)[C@@H]2CCCN2C(=O)[C@H]([C@@H](C)CC)NC(=O)[C@H](CO)NC(=O)[C@H](C)NC(=O)[C@H]([C@@H](C)O)NC(=O)[C@H](CCC(=O)O)NC1=O [Example 25] (cyclo([Gly(octyl)]ETASIPPQKT[dY]K))
7031
CCCCCCCC[C@@H]1NC(=O)[C@@H]2CCCN2C(=O)[C@H]2CCCN2C(=O)[C@H](CO)NC(=O)[C@H](CCCCN)NC(=O)[C@H](CCC(N)=O)NC(=O)[C@@H]2CCCN2C(=O)[C@@H]2CCCN2C(=O)[C@H]([C@@H](C)CC)NC(=O)[C@H](CO)NC(=O)[C@H](C)NC(=O)[C@H]([C@@H](C)O)NC(=O)[C@H](CCc2ccc(O)cc2)NC1=O [Example 47] (cyclo([Gly(octyl)][hTyr]TASIPPQKS[dP]P))
357

The record that follows has no hNE/PPE selectivity shown yet.
Quick note, hNE/PPE selectivity for CCCCCCCC[C@@H]1NC(=O)[C@@H]2CCCN2C(=O)[C@H]2CCCN2C(=O)[C@H]([C@@H](C)O)NC(=O)[C@H](CCCCN)NC(=O)C[C@H](CCC(N)=O)NC(=O)[C@@H]2CCCN2C(=O)[C@@H]2CCCN2C(=O)[C@H]([C@@H](C)CC)NC(=O)[C@H](CO)NC(=O)[C@H](C)NC(=O)[C@H]([C@@H](C)O)NC(=O)[C@H](CCC(=O)O)NC1=O [Example 36] (cyclo([Gly(octyl)]ETASIPP[β3hQ]KT[dP]P)) landed at 685
